assay-name: TOX21_p53_BLA_p3_viability: Viability Assessment in the Tox21 HCT-116 p53 Agonism Beta-lactamase Assay, Phase 3 (AID 2283593);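 further: cells exposed to compound for 16 h before reading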
Results filed as inconclusive are left out. The source made the active and inactive calls. How the source made its calls: active means hit-call score of the fitted dose curve at least 0.9, where 1 is the maximum; inconclusive means response in the unintended direction; inactive means score below 0.9.
Classes used: 1.0 for active, 0.0 for inactive

compound	category-label
C[Si]1(C)O[Si](C)(C)O[Si](C)(C)O[Si](C)(C)O1	0.0
Cc1ccc(C(C)C)c(O)c1	0.0
Cc1ccc(C)c(O)c1C	0.0
C=CCc1ccc(O)c(OC)c1	0.0
Nc1nc(N)c2nc(CNc3ccc(C(=O)N[C@@H](CCC(=O)O)C(=O)O)cc3)cnc2n1	1.0
O=C(N[C@@H](Cc1ccccc1)[C@@H](O)C(=O)N1C[C@@H](O)[C@@H](O)C1)c1cc2cc(Cl)ccc2[nH]1	0.0
CC1(C)NC(=O)NC1=O	0.0
FC(F)(F)C(F)(F)C(F)(F)C(F)(F)C(F)(F)C(F)(F)CCI	0.0
O=c1c(O)c(-c2ccc(O)c(O)c2)oc2cc(O)cc(O)c12	0.0
c1cc(-c2ccncc2)ccn1	0.0
CNCc1cc(F)ccc1Oc1ccc(Cl)c(Cl)c1	0.0
COc1ccc2c(c1)c(CC(=O)O)c(C)n2C(=O)c1ccc(Cl)cc1	0.0
Cc1ccc(N(C)C)cc1	0.0
COCCOC[C@H](CC1(C(=O)NC2CCC(C(=O)O)CC2)CCCC1)C(=O)Oc1ccc2c(c1)CCC2 (some centres undefined)	0.0
Cc1c(C(=O)O)c(O)cc2c1C(=O)c1c(O)c([C@@H]3O[C@H](CO)[C@@H](O)[C@H](O)[C@H]3O)c(O)c(O)c1C2=O	0.0
CCOc1ccc2c(c1)C(C)=CC(C)(C)N2	0.0
CCCCc1ccc2c(n1)[C@@H](c1ccc(OC)cc1C[C@H](C)C(=O)O)[C@H](C(=O)O)[C@H]2c1ccc2c(c1)OCO2	0.0
Cc1cccc([N+](=O)[O-])c1C	0.0
C1CCC(SSC2CCCCC2)CC1	0.0
Cc1cc(=O)[nH]c(=S)[nH]1	0.0
Cc1nc(C)nc(N2C[C@@H](C)N(c3ccnc([C@@H](C)O)n3)[C@@H](C)C2)n1	0.0
CN1CCCC1=O	0.0
CCCCCCCCCCCCCCCC	0.0
CCCCOC(=O)CCCCCCCCC(=O)OCCCC	0.0

###

Read-out: Tumor necrosis factor (Homo sapiens) (UniProt P01375)
Sequence (P01375 whole entry, looked up): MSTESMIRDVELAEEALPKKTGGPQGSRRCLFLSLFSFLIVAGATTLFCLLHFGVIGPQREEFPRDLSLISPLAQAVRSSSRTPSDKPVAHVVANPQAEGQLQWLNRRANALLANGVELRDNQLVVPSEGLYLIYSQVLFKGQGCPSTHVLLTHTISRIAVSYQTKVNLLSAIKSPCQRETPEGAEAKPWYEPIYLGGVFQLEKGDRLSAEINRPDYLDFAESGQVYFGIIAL
assay-name: BSK_LPS_TNFa: BioMAP Diversity Plus: LPS Assay for Tumour Necrosis Factor alpha (TNFa) Biomarker Activity (AID 2283085)
condition-summary: primary human HUVEC with PBMC; actives raise or lower the signal
Active and inactive are the calls of the source. How the source made its calls: active means hit-call score of the fitted dose curve at least 0.9, where 1 is the maximum; inactive means score below 0.9.
Classes used: Y for active, N for inactive

smiles-str	category-label
CC(=O)OC/C=C(\C)CCC=C(C)C	N
C=CCOC(=O)c1ccccc1C(=O)OCC=C	N
C1CCC(SSC2CCCCC2)CC1	Y
CCCc1cc(=O)[nH]c(=S)[nH]1	N
Cc1oc(-c2ccccc2)nc1CCOc1cccc2c1ccn2CCC(=O)O	Y
Nc1ccccc1N	N
Cc1c(C(=O)O)c(O)cc2c1C(=O)c1c(O)c([C@@H]3O[C@H](CO)[C@@H](O)[C@H](O)[C@H]3O)c(O)c(O)c1C2=O	N

###

Read-out: Interleukin 6 Receptor (IL6R), IL6R (gene 3570)
assay-name: LTEA_HepaRG_IL6R: Life Technologies and Expression Analysis (LTEA) Assay for Interleukin 6 Receptor (IL6R) using HepaRG (AID 2283510)
condition-summary: mRNA level, 48 h; actives raise or lower the signal
The source made the active and inactive calls. The calls were made as follows: active = hit-call score of the fitted dose curve at least 0.9, where 1 is the maximum; inactive = score below 0.9.
Classes used: active, inactive

smiles-str	category-label
NCCO	inactive
CN1CCN(Cc2cc(-c3ccc4[nH]c(=O)oc4c3)co2)[C@@H](c2ccc(F)cc2)C1	inactive
Cc1ccc(C)c(C)c1	inactive
COc1cc(S(=O)(=O)O)c(C)cc1N=Nc1c(O)ccc2cc(S(=O)(=O)O)ccc12	inactive
NCC1(Cc2noc(=O)[nH]2)CCCCC1	inactive
Cc1c(C(=O)O)c(O)cc2c1C(=O)c1c(O)c([C@@H]3O[C@H](CO)[C@@H](O)[C@H](O)[C@H]3O)c(O)c(O)c1C2=O	inactive
CCCCCCOCCO	inactive
O=c1[nH]cc(F)c(=O)[nH]1	active
NC(=O)Cn1c(=O)cc(CCN2CCN(c3nccc4sccc34)CC2)c2ccc(F)cc21	inactive
Nc1ccccc1N	active
FC(F)(F)C(F)(F)C(F)(F)C(F)(F)C(F)(F)C(F)(F)CCI	inactive
CCCCCC(=O)O	inactive
CCCCCCCCCCC	inactive
